ASSAY_NAME: Plasma clearance in Sprague-Dawley rat at 3 mg/kg, iv administered via foot dorsal vein by LC-MS/MS analysis
Type: ADME, organism-based
ENDPOINT_NAME: clearance (mL/min/kg)
The reply should contain only the number, in mL/min/kg.

# input Name the reported clearance value associated with the molecule CCCCCCOc1ccc(N(CC(F)(F)F)S(=O)(=O)[C@H]2C[C@H]3O[C@@H]2C(c2ccc(O)cc2)=C3c2ccc(O)cc2)cc1 (relative stereo)
# output 105

====

This listing pairs compounds with measured selectivity ratio.
ASSAY_NAME: Therapeutic index, ratio of IC50 for cytotoxicity against human MCF10A cells to IC50 for antiproliferative activity against human MCF7 cells
Type: toxicity, cell-based
EXPERIMENTAL_CONDITIONS: read-out: Ratio IC50
# output: bare number, no unit

# input Name the reported selectivity ratio value associated with the compound CCCCOc1ccc(C2=C(c3ccc(O)cc3)[C@H]3C[C@H](S(=O)(=O)N(CC(F)(F)F)c4ccc(Cl)cc4)[C@@H]2O3)cc1 (relative stereo)
# output 15.5

# input Item: CCCCCCCCOc1ccc(C2=C(c3ccc(O)cc3)[C@H]3O[C@@H]2C[C@@H]3S(=O)(=O)N(CC)c2ccccc2)cc1 (relative stereo)
# output 29.8

# input Item: CCCCOc1ccc(C2=C(c3ccc(O)cc3)[C@H]3O[C@@H]2C[C@@H]3S(=O)(=O)N(CC)c2ccccc2)cc1 (relative stereo)
# output 18

# input Item: CCCCCCOc1ccc(C2=C(c3ccc(O)cc3)[C@H]3C[C@H](S(=O)(=O)N(CC(F)(F)F)c4ccc(Cl)cc4)[C@@H]2O3)cc1 (relative stereo)
# output 19.8

====

SYSTEM: UniProt:P03372
Sequence (P03372 whole entry): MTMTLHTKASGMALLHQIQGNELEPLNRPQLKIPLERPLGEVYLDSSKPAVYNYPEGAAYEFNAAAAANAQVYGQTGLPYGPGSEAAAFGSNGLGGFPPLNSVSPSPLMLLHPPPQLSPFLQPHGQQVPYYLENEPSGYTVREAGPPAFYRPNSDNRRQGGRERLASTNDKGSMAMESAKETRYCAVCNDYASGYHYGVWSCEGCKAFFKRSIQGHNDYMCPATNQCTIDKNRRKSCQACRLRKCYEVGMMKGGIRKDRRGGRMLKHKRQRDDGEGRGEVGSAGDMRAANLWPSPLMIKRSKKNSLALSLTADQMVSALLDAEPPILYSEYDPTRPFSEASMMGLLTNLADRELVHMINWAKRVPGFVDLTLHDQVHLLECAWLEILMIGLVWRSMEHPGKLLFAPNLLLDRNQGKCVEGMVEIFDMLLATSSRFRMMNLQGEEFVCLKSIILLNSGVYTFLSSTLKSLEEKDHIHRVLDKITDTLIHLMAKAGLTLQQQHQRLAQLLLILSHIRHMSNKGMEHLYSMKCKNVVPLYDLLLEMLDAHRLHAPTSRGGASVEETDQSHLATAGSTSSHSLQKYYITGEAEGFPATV
ASSAY_NAME: Binding affinity to ERalpha (unknown origin) by competitive fluorometric receptor binding assay relative to estradiol
Consider the following partition of reported relative binding affinity (RBA) into named classes: bottom bin: < 0.7; middle bin: ≥ 0.7 and < 4; top bin: ≥ 4

> print(dat)
                                   molecule       class
1  CCCCCCOc1ccc(C2=C(c3ccc(O)cc3)[C@H]3O[C@@H]2C[C@@H]3S(=O)(=O)N(CC(F)(F)F)c2ccc(OC)cc2)cc1     top bin
2  CCCCCCCCOc1ccc(C2=C(c3ccc(O)cc3)[C@H]3C[C@H](S(=O)(=O)N(CC)c4ccccc4)[C@@H]2O3)cc1 (racemic)  bottom bin
3  CCCCCOc1ccc(C2=C(c3ccc(O)cc3)[C@H]3C[C@H](S(=O)(=O)N(CC(F)(F)F)c4ccc(OC)cc4)[C@@H]2O3)cc1 (relative stereo)     top bin
4  CCCCCCOc1ccc(C2=C(c3ccc(O)cc3)[C@H]3C[C@H](S(=O)(=O)N(CC(F)(F)F)c4ccc(OC)cc4)[C@@H]2O3)cc1 (relative stereo)     top bin
5  CCCCCCOc1ccc(C2=C(c3ccc(O)cc3)[C@H]3C[C@H](S(=O)(=O)N(CC(F)(F)F)c4ccc(Cl)cc4)[C@@H]2O3)cc1 (relative stereo)     top bin

# input Kindly state the category for this molecule: CCCCCOc1ccc(C2=C(c3ccc(O)cc3)[C@H]3O[C@@H]2C[C@@H]3S(=O)(=O)N(CC(F)(F)F)c2ccc(OC)cc2)cc1 (relative stereo)
# output middle bin

# input Item: CCCCCCOc1ccc(N(CC(F)(F)F)S(=O)(=O)[C@H]2C[C@H]3O[C@@H]2C(c2ccc(O)cc2)=C3c2ccc(O)cc2)cc1 (relative stereo)
# output middle bin

# input Item: COc1ccc(N(CC(F)(F)F)S(=O)(=O)[C@H]2C[C@H]3O[C@@H]2C(c2ccc(O)cc2)=C3c2ccc(O)cc2)cc1 (relative stereo)
# output middle bin

# input Item: CCCCOc1ccc(C2=C(c3ccc(O)cc3)[C@H]3O[C@@H]2C[C@@H]3S(=O)(=O)N(CC)c2ccccc2)cc1 (relative stereo)
# output middle bin

# input Item: CCCCCCOc1ccc(N(C)S(=O)(=O)[C@H]2C[C@H]3O[C@@H]2C(c2ccc(O)cc2)=C3c2ccc(O)cc2)cc1 (relative stereo)
# output middle bin

# input Item: CCCCCCCCOc1ccc(C2=C(c3ccc(O)cc3)[C@H]3O[C@@H]2C[C@@H]3S(=O)(=O)N(CC(F)(F)F)c2ccc(Cl)cc2)cc1
# output bottom bin

# input Item: CCCCCCCCCCCCOc1ccc(C2=C(c3ccc(O)cc3)[C@H]3O[C@@H]2C[C@@H]3S(=O)(=O)N(CC(F)(F)F)c2ccc(OC)cc2)cc1 (relative stereo)
# output bottom bin

====

Tested on: MCF-10A
ASSAY_NAME: Cytotoxicity against human MCF10A cell incubated for 72 hrs by MTT assay
Format: cell-based
ENDPOINT_NAME: pIC50
The scale used: pIC50 is minus the common logarithm of the concentration in molar units.

Some entries whose results are on file:
> print(dat)
                                   compound  recorded.number
1  CCCCOc1ccc(C2=C(c3ccc(O)cc3)[C@H]3O[C@@H]2C[C@@H]3S(=O)(=O)N(CC)c2ccccc2)cc1 (relative stereo)             4.48
2  CCCCCCOc1ccc(C2=C(c3ccc(O)cc3)[C@H]3O[C@@H]2C[C@@H]3S(=O)(=O)N(CC(F)(F)F)c2ccc(OC)cc2)cc1             4.37

Let us examine a further case.
# input Form: Entry = CCCCOc1ccc(C2=C(c3ccc(O)cc3)[C@H]3C[C@H](S(=O)(=O)N(CC(F)(F)F)c4ccc(Cl)cc4)[C@@H]2O3)cc1 (relative stereo) | System = MCF-10A | pIC50 = ____
# output 4.34

====

This listing pairs compounds with measured pIC50.
Test system: MCF-10A
ASSAY_NAME: Cytotoxicity against human MCF10A cell incubated for 72 hrs by MTT assay
Format: cell-based
The scale used: pIC50 is minus the common logarithm of the concentration in molar units.

> print(dat)
                                   compound   system  recorded.number
1  CCCCOc1ccc(C2=C(c3ccc(O)cc3)[C@H]3C[C@H](S(=O)(=O)N(CC(F)(F)F)c4ccc(OC)cc4)[C@@H]2O3)cc1 (relative stereo)  MCF-10A             4.16
2  CCCCOc1ccc(C2=C(c3ccc(O)cc3)[C@H]3C[C@H](S(=O)(=O)N(CC)c4ccccc4)[C@@H]2O3)cc1 (relative stereo)  MCF-10A             4.23
3  CCCCCCOc1ccc(N(C)S(=O)(=O)[C@H]2C[C@H]3O[C@@H]2C(c2ccc(O)cc2)=C3c2ccc(O)cc2)cc1 (relative stereo)  MCF-10A             4.52

# input Name the reported pIC50 value associated with the compound CCCCCCOc1ccc(C2=C(c3ccc(O)cc3)[C@H]3C[C@H](S(=O)(=O)N(CC(F)(F)F)c4ccc(OC)cc4)[C@@H]2O3)cc1 (relative stereo)
# output 4.41

# input Item: CCCCCCCCOc1ccc(C2=C(c3ccc(O)cc3)[C@H]3O[C@@H]2C[C@@H]3S(=O)(=O)N(CC)c2ccccc2)cc1 (relative stereo)
# output 4.46

# input Item: CCCCCCCCOc1ccc(C2=C(c3ccc(O)cc3)[C@H]3C[C@H](S(=O)(=O)N(CC)c4ccccc4)[C@@H]2O3)cc1 (racemic)
# output 4.23

# input Item: CCCCCCCCOc1ccc(C2=C(c3ccc(O)cc3)[C@H]3O[C@@H]2C[C@@H]3S(=O)(=O)N(CC(F)(F)F)c2ccc(Cl)cc2)cc1
# output 4.07

# input Item: CCCCCCOc1ccc(N(CC)S(=O)(=O)[C@H]2C[C@H]3O[C@@H]2C(c2ccc(O)cc2)=C3c2ccc(O)cc2)cc1 (relative stereo)
# output 4.44

====

SYSTEM: Estrogen receptor (Homo sapiens)
ASSAY_NAME: Binding affinity to ERalpha (unknown origin) by competitive fluorometric receptor binding assay relative to estradiol
ENDPOINT_NAME: relative binding affinity (RBA)
# output: bare number, no unit

Some entries whose results are on file:
> print(dat)
                                   compound                    endpoint.name  recorded.number
1  CCCCCCCCCCOc1ccc(C2=C(c3ccc(O)cc3)[C@H]3O[C@@H]2C[C@@H]3S(=O)(=O)N(CC(F)(F)F)c2ccc(OC)cc2)cc1 (relative stereo)  relative binding affinity (RBA)             1.35
2  CCCCOc1ccc(C2=C(c3ccc(O)cc3)[C@H]3C[C@H](S(=O)(=O)N(CC)c4ccccc4)[C@@H]2O3)cc1 (relative stereo)  relative binding affinity (RBA)             3.26

# input Name the reported relative binding affinity (RBA) value associated with the compound CCCCCCOc1ccc(C2=C(c3ccc(O)cc3)[C@H]3O[C@@H]2C[C@@H]3S(=O)(=O)N(CC)c2ccccc2)cc1 (relative stereo)
# output 2.51

# input Item: CCCCCCOc1ccc(C2=C(c3ccc(O)cc3)[C@H]3C[C@H](S(=O)(=O)N(CC)c4ccccc4)[C@@H]2O3)cc1 (relative stereo)
# output 2.99
